# assayed-system: T1, human vascular endothelial growth factor receptor-2 Fc chimera (KDR-Fc) (human, UniProt P35968 20-764)
# T1 construct: range 1-764; also called human VEGFR-2; not shown: human IgG1 Fc
# T1 sequence (P35968 20-764 limits assumed, change not shown, form in doubt): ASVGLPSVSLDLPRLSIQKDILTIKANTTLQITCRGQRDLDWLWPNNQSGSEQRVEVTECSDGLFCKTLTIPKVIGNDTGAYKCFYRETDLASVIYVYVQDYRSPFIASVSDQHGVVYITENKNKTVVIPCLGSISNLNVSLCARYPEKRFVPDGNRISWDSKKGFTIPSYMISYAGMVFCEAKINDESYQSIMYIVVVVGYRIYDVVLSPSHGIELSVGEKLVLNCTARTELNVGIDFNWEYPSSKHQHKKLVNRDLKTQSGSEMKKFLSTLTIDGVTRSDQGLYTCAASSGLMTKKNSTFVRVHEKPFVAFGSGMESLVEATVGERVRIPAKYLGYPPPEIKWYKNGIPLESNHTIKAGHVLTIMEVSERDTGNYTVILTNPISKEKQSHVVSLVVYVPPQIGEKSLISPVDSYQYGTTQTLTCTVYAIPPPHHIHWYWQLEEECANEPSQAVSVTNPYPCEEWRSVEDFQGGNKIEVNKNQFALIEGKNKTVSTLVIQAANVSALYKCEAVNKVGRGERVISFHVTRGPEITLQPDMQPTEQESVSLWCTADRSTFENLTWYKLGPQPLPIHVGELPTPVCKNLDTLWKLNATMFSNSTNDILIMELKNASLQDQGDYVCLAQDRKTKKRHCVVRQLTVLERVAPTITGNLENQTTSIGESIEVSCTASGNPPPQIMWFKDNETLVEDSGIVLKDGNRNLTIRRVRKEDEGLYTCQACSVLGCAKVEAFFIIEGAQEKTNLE
# experiment-summary: radioactive equilibrium binding, 1 nM KDR-Fc, % of input
# Protocol: To prepare ³⁵S-labeled binding proteins for analysis, mRNA was prepared as described above for RNA-protein fusion production but the linker ligation step was omitted. […] 50 μL of the reaction mixture and elution were dried onto a LumaPlate-96 (Packard) and the amount of ³⁵S on the plate was measured using a TopCount NXT instrument (Packard). […] Data was analyzed using the GraphPad Prizm software (GraphPad Software, Inc, San Diego, Calif.), fitted using a one site, non-linear binding equation.
experimental-readout: Binding to 1 nM KDR, %

Return Binding to 1 nM KDR, % for the following binder: 3B4 PR3 (designed binder) EVVAATPTSLLISWRHPHFPTRYYRITYGETGGNSPVQEFTVPLQPPTATISGLKPGVDYTITVYAVTVGQNEHELLTPISINYRT
17%

Return Binding to 1 nM KDR, % for the following binder: 2′Del D1 PR4 (designed binder) EVVAATPTSLLISWRHPHFPTRYYRITYGETGGNSPVQEFTVPLQPPTATISGLKPGVDYTITVYAVTLEQNDRVLLTPISINYRT
28%

Return Binding to 1 nM KDR, % for the following binder: 3′F2 PR4 (designed binder) EVVAATPTSLLISWRHPHFPTRYYRITYGETGGNSPVQEFTVPLQPPTATISGLKPGVDYTITVYAVTLGKNDHELLTPISINYRT
29%

Return Binding to 1 nM KDR, % for the following binder: 1′DelA1 PR4 (designed binder) EVVAATPTSLLISWRHPHFPTRYYRITYGETGGNSPVQEFTVPLQPPTATISGLKPGVDYTITVYAVTVAQNDHELLTPISINYRT
14%

Return Binding to 1 nM KDR, % for the following binder: 2′Del E3 PR4 (designed binder) EVVAATPTSLLISWRHPHFPTRYYRITYGETGGNSPVQEFTVPLQPPTATISGLKPGVDYTITVYAVTLGPYEHELLTPISINYRT
33%

Reference source for all entries: patent US20120283184A1
